System: HIV-1 F227L + V106A double-mutant strain
measurement.description: microbe, parasite or virus in culture
Format: cell-based
condition.notes: Human immunodeficiency virus 1, MT4, read-out: EC50 F227L + V106A
quantity: pEC50
// pEC50 is dimensionless: -log10 of concentration (M)

Example entries begin here.
compound	pEC50
O=C1Nc2ccc(Cl)cc2[C@@](C#CC2CC2)(C(F)(F)F)O1 [EFV, efavirenz, reference compound]	6.57
Cc1cc(-c2ccc(F)cc2)cc(C)c1Oc1nc(NC2CCN(Cc3ccc(C(N)=O)cc3)CC2)nc2ccsc12	7.25
Cc1cc(-c2cccs2)cc(C)c1Oc1nc(NC2CCN(Cc3ccc(S(N)(=O)=O)cc3)CC2)nc2ccsc12	7.25
COc1ccc(-c2cc(C)c(Oc3nc(NC4CCN(Cc5ccc(S(N)(=O)=O)cc5)CC4)nc4ccsc34)c(C)c2)cc1	6.91
Cc1cc(-c2ccccc2)cc(C)c1Oc1nc(NC2CCN(Cc3ccc(S(N)(=O)=O)cc3)CC2)nc2ccsc12	6.70
Cc1cc(-c2ccc(C#N)cc2)cc(C)c1Oc1nc(NC2CCN(Cc3ccc(C(N)=O)cc3)CC2)nc2ccsc12	7.01

Kindly review the next compound as well.
Form field pEC50, entry Cc1cc(-c2ccc(N(C)C)cc2)cc(C)c1Oc1nc(NC2CCN(Cc3ccc(S(N)(=O)=O)cc3)CC2)nc2ccsc12 : 6.85

====

system.name: WT HIV-1 RT (Human immunodeficiency virus type 1 group M subtype B)
measurement.description: Recombinant HIV-1 RT inhibitory assay
quantity: IC50 (nM)
Answer format: numeric, nM implied, no suffix.

Cc1cc(-c2ccc(C#N)cc2)cc(C)c1Oc1nc(NC2CCN(Cc3ccc(C(N)=O)cc3)CC2)nc2ccsc12 182
Cc1cc(-c2ccc(N(C)C)cc2)cc(C)c1Oc1nc(NC2CCN(Cc3ccc(S(N)(=O)=O)cc3)CC2)nc2ccsc12 477
Cc1cc(-c2ccoc2)cc(C)c1Oc1nc(NC2CCN(Cc3ccc(S(N)(=O)=O)cc3)CC2)nc2ccsc12 265
Cc1cc(-c2cccc(C#N)c2)cc(C)c1Oc1nc(NC2CCN(Cc3ccc(C(N)=O)cc3)CC2)nc2ccsc12 202
Cc1cc(-c2ccc(C#N)cc2)cc(C)c1Oc1nc(NC2CCN(Cc3ccc(S(N)(=O)=O)cc3)CC2)nc2ccsc12 288
Cc1cc(-c2cccs2)cc(C)c1Oc1nc(NC2CCN(Cc3ccc(C(N)=O)cc3)CC2)nc2ccsc12 595

IC50 for Cc1cc(-c2ccco2)cc(C)c1Oc1nc(NC2CCN(Cc3ccc(C(N)=O)cc3)CC2)nc2ccsc12 is 901

Lab note: Cc1cc(-c2ccoc2)cc(C)c1Oc1nc(NC2CCN(Cc3ccc(C(N)=O)cc3)CC2)nc2ccsc12 gave IC50 of 249

IC50 in this record for Cc1cc(-c2ccc(F)cc2)cc(C)c1Oc1nc(NC2CCN(Cc3ccc(C(N)=O)cc3)CC2)nc2ccsc12 : 171

Looking up Cc1cc(-c2ccc(F)cc2)cc(C)c1Oc1nc(NC2CCN(Cc3ccc(S(N)(=O)=O)cc3)CC2)nc2ccsc12 , I see its IC50 listed as 211

// recorded IC50 for Cc1cc(-c2ccccc2)cc(C)c1Oc1nc(NC2CCN(Cc3ccc(S(N)(=O)=O)cc3)CC2)nc2ccsc12 : 164

====

# RF Y181C annotations
Test system: HIV-1 Y181C mutant strain
measurement.description: microbe, parasite or virus in culture
Format: cell-based
condition.notes: ratio of EC50 (resistant viral strain)/EC50 (wild-type viral strain)
Just the number, please.

Here is how some compounds turned out for RF Y181C.
Cc1cc(-c2cccc(C#N)c2)cc(C)c1Oc1nc(NC2CCN(Cc3ccc(C(N)=O)cc3)CC2)nc2ccsc12 2.2
Cc1cc(-c2ccc(F)cc2)cc(C)c1Oc1nc(NC2CCN(Cc3ccc(S(N)(=O)=O)cc3)CC2)nc2ccsc12 4.0

Form: compound = Cc1cc(-c2ccsc2)cc(C)c1Oc1nc(NC2CCN(Cc3ccc(C(N)=O)cc3)CC2)nc2ccsc12 ; RF Y181C = 3.1

Memo: COc1ccc(-c2cc(C)c(Oc3nc(NC4CCN(Cc5ccc(S(N)(=O)=O)cc5)CC4)nc4ccsc34)c(C)c2)cc1 , reported RF Y181C: 2.6

====

Entries and their SI IIIB
Tested on: WT HIV-1 (IIIB)
measurement.description: microbe, parasite or virus in culture
Format: cell-based
condition.notes: ratio of CC50/EC50
No unit in the answer, only the number.

Field: example entries. Status: answers known.
compound	system.name	quantity	reported
Cc1cc(-c2ccoc2)cc(C)c1Oc1nc(NC2CCN(Cc3ccc(C(N)=O)cc3)CC2)nc2ccsc12 [Compound 14]	WT HIV-1 (IIIB)	SI IIIB	275
Cc1cc(-c2ccsc2)cc(C)c1Oc1nc(NC2CCN(Cc3ccc(C(N)=O)cc3)CC2)nc2ccsc12 [Compound 18]	WT HIV-1 (IIIB)	SI IIIB	71
Cc1cc(-c2cccs2)cc(C)c1Oc1nc(NC2CCN(Cc3ccc(S(N)(=O)=O)cc3)CC2)nc2ccsc12 [Compound 15]	WT HIV-1 (IIIB)	SI IIIB	435

Let me check: Cc1cc(-c2ccc(C#N)cc2)cc(C)c1Oc1nc(NC2CCN(Cc3ccc(C(N)=O)cc3)CC2)nc2ccsc12 [Compound 26] , system WT HIV-1 (IIIB), measured SI IIIB is 552

SI IIIB of Cc1cc(-c2ccccc2)cc(C)c1Oc1nc(NC2CCN(Cc3ccc(C(N)=O)cc3)CC2)nc2ccsc12 [Compound 20] , assay on WT HIV-1 (IIIB), is 367

Entry Cc1cc(-c2ccc(F)cc2)cc(C)c1Oc1nc(NC2CCN(Cc3ccc(C(N)=O)cc3)CC2)nc2ccsc12 [Compound 24] , tested on WT HIV-1 (IIIB), has a reported SI IIIB of 532

Item Cc1cc(-c2ccc(N(C)C)cc2)cc(C)c1Oc1nc(NC2CCN(Cc3ccc(S(N)(=O)=O)cc3)CC2)nc2ccsc12 [Compound 29] ; assay system WT HIV-1 (IIIB); SI IIIB reported as 232

Note to self: SI IIIB of Cc1cc(-c2ccoc2)cc(C)c1Oc1nc(NC2CCN(Cc3ccc(S(N)(=O)=O)cc3)CC2)nc2ccsc12 [Compound 13] with WT HIV-1 (IIIB) was 246

Value (SI IIIB, WT HIV-1 (IIIB)) for record Cc1cc(-c2ccsc2)cc(C)c1Oc1nc(NC2CCN(Cc3ccc(S(N)(=O)=O)cc3)CC2)nc2ccsc12 [Compound 17] = 489

Assay WT HIV-1 (IIIB), sample Cc1cc(-c2cccc(N(C)C)c2)cc(C)c1Oc1nc(NC2CCN(Cc3ccc(S(N)(=O)=O)cc3)CC2)nc2ccsc12 [Compound 31] , SI IIIB read: 125

Bench note, WT HIV-1 (IIIB): entry Cc1cc(-c2ccco2)cc(C)c1Oc1nc(NC2CCN(Cc3ccc(C(N)=O)cc3)CC2)nc2ccsc12 [Compound 12] , its SI IIIB = 310

Reading of SI IIIB for Cc1cc(-c2ccccc2)cc(C)c1Oc1nc(NC2CCN(Cc3ccc(S(N)(=O)=O)cc3)CC2)nc2ccsc12 [Compound 19] with WT HIV-1 (IIIB): 487

For the compound Cc1cc(-c2cccc(N(C)C)c2)cc(C)c1Oc1nc(NC2CCN(Cc3ccc(C(N)=O)cc3)CC2)nc2ccsc12 [Compound 32] , the measured SI IIIB on WT HIV-1 (IIIB) was 121

Entry COc1ccc(-c2cc(C)c(Oc3nc(NC4CCN(Cc5ccc(C(N)=O)cc5)CC4)nc4ccsc34)c(C)c2)cc1 [Compound 22] , WT HIV-1 (IIIB) data, SI IIIB value: 256

Considering Cc1cc(-c2ccc(F)cc2)cc(C)c1Oc1nc(NC2CCN(Cc3ccc(S(N)(=O)=O)cc3)CC2)nc2ccsc12 [Compound 23] , its SI IIIB with WT HIV-1 (IIIB) was recorded as 1492

====

System: HIV-1 K103N mutant strain
measurement.description: microbe, parasite or virus in culture
Type: cell-based
condition.notes: CC50/EC50
quantity: SI K103N
API note: the answer field is a bare number with no unit suffix.

Cc1cc(-c2ccoc2)cc(C)c1Oc1nc(NC2CCN(Cc3ccc(S(N)(=O)=O)cc3)CC2)nc2ccsc12 249

For this compound ( Cc1cc(-c2cccc(C#N)c2)cc(C)c1Oc1nc(NC2CCN(Cc3ccc(C(N)=O)cc3)CC2)nc2ccsc12 ), measured SI K103N is 208

The recorded SI K103N for Cc1cc(-c2ccsc2)cc(C)c1Oc1nc(NC2CCN(Cc3ccc(S(N)(=O)=O)cc3)CC2)nc2ccsc12 is 865

Form: compound = Cc1cc(-c2ccc(N(C)C)cc2)cc(C)c1Oc1nc(NC2CCN(Cc3ccc(C(N)=O)cc3)CC2)nc2ccsc12 ; SI K103N = 135

// field: SI K103N; key: Cc1cc(-c2ccc(F)cc2)cc(C)c1Oc1nc(NC2CCN(Cc3ccc(S(N)(=O)=O)cc3)CC2)nc2ccsc12 ; value = 1441

Looking up Cc1cc(-c2ccc(N(C)C)cc2)cc(C)c1Oc1nc(NC2CCN(Cc3ccc(S(N)(=O)=O)cc3)CC2)nc2ccsc12 , I found its SI K103N recorded as 189

The compound listed as Cc1cc(-c2cccc(N(C)C)c2)cc(C)c1Oc1nc(NC2CCN(Cc3ccc(C(N)=O)cc3)CC2)nc2ccsc12 has a reported SI K103N of 93

Record Cc1cc(-c2cccs2)cc(C)c1Oc1nc(NC2CCN(Cc3ccc(S(N)(=O)=O)cc3)CC2)nc2ccsc12 . Reported SI K103N: 932

Entry under test: Cc1cc(-c2ccsc2)cc(C)c1Oc1nc(NC2CCN(Cc3ccc(C(N)=O)cc3)CC2)nc2ccsc12 . Its SI K103N was 99

Measured SI K103N, Cc1cc(-c2ccccc2)cc(C)c1Oc1nc(NC2CCN(Cc3ccc(S(N)(=O)=O)cc3)CC2)nc2ccsc12 : 356

For this compound ( Cc1cc(-c2ccccc2)cc(C)c1Oc1nc(NC2CCN(Cc3ccc(C(N)=O)cc3)CC2)nc2ccsc12 ), measured SI K103N is 171

SI K103N for COc1ccc(-c2cc(C)c(Oc3nc(NC4CCN(Cc5ccc(C(N)=O)cc5)CC4)nc4ccsc34)c(C)c2)cc1 is 230

Input Cc1cc(-c2ccc(F)cc2)cc(C)c1Oc1nc(NC2CCN(Cc3ccc(C(N)=O)cc3)CC2)nc2ccsc12 . Output SI K103N: 578

SI K103N reported for this compound COc1ccc(-c2cc(C)c(Oc3nc(NC4CCN(Cc5ccc(S(N)(=O)=O)cc5)CC4)nc4ccsc34)c(C)c2)cc1 : 289
